Test system: normal NK cells expanded with K562-aAPC
Protocol details: percent inhibition of viability; higher = more inhibition
Condition context: 72 h; IL-2 2.5 ng/mL; 1000 nM
What percent inhibition of viability was measured for each of the following?
Please state the figure in %; there is no need to write the unit.

Find the recorded percent inhibition of viability belonging to CC(C)C[C@H](NC(=O)[C@H](Cc1ccccc1)NC(=O)c1cnccn1)B(O)O [Bortezomib] (max concentration tested 1000 nM) and report it. 100

Find the recorded percent inhibition of viability belonging to CC(C)[C@H]1C(=O)N[C@@H](CCCNC(=N)N)C(=O)NCC(=O)N[C@@H](CC(=O)O)C(=O)N[C@H](Cc2ccccc2)C(=O)N1C [Cilengitide] (max concentration tested 10000 nM) and report it. -10.2

Find the recorded percent inhibition of viability belonging to CC[C@H](C)C(=O)O[C@H]1C[C@H](O)C=C2C=C[C@H](C)[C@H](CC[C@@H](O)C[C@@H](O)CC(=O)O)[C@H]21 [Pravastatin] (max concentration tested 10000 nM) and report it. 5.71

Find the recorded percent inhibition of viability belonging to FC(F)c1nc2ccccc2n1-c1nc(N2CCOCC2)nc(N2CCOCC2)n1 [ZSTK474] (max concentration tested 10000 nM) and report it. 35.9

Find the recorded percent inhibition of viability belonging to O=C(Nc1cccnc1)N1CCC(Cc2cccc(Oc3ccc(C(F)(F)F)cn3)c2)CC1 [PF-3845] (max concentration tested 10000 nM) and report it. -9.15

Find the recorded percent inhibition of viability belonging to c1ccc2c(CCNc3ccc(Nc4ccncc4)cc3)c[nH]c2c1 [Serdemetan] (max concentration tested 10000 nM) and report it. 41.7

Find the recorded percent inhibition of viability belonging to C=CCc1cccc(/C=N/NC(=O)CN2CCN(Cc3ccccc3)CC2)c1O [PAC-1] (max concentration tested 10000 nM) and report it. 20.9
